- Tested on: SNB-19
- experiment.summary: NCI tumour cell line growth inhibition, 48 h
The source made the active and inactive calls. Rule as the data show it: active = GI50 up to about 1.1 µM and inactive = higher.
Catalogue of compounds with associated GI50

>  <compound>
COc1cc(/C=C/C(=O)OC[C@]23O[C@H]2[C@@H](OC2OC(C)C(O)C(O)C2O)C2C=CO[C@@H](OC4OC(CO)C(O)C(O)C4O)C23)ccc1O (some centres undefined)

>  <reported.value>
> 100 µM (inactive)

$$$$
>  <compound>
Cc1ccc(C(O)c2cnc(C)n2Cc2ccccc2)cc1 (centres undefined)

>  <reported.value>
> 100 µM (inactive)

$$$$
>  <compound>
COc1cc2c(cc1OC)C13CCN4C=C5CCOC6CC(=O)N2C1C6C5CC43 (centres undefined)

>  <reported.value>
> 100 µM (inactive)

$$$$
>  <compound>
CCOC(=O)C1CCCN1C(=O)c1ccccc1Cl (centres undefined)

>  <reported.value>
> 100 µM (inactive)

$$$$

In one line, give reported GI50 of the entry CC(=O)OCC1OC(n2c3c(c(-c4ccco4)c(C#N)c2=S)CCC3)C(OC(C)=O)C(OC(C)=O)C1OC(C)=O (centres undefined) .
> 100 µM (inactive)

In one line, give reported GI50 of the entry `COc1ccc(NC(=O)c2oc3cc(O)ccc3c(=O)c2C)c([N+](=O)[O-])c1` .
> 100 µM (inactive)

In one line, give reported GI50 of the entry `Cc1cc(C)nc(NCCC(O)(P(=O)(O)O)P(=O)(O)O)n1` .
> 100 µM (inactive)

In one line, give reported GI50 of the entry CC(=O)NN(c1ccccc1)C1CCN(c2ccccc2)N1C(C)=O (centres undefined) .
> 10 µM (inactive)

In one line, give reported GI50 of the entry `O=C1/C(=C/c2ccccc2)CN(C(=O)Oc2ccc([N+](=O)[O-])cc2)C/C1=C\c1ccccc1` .
6.65 µM (inactive)

---

Catalogue of molecules with associated GI50
- Test system: PC-3
- experiment.summary: NCI tumour cell line growth inhibition, 48 h
Calls of active or inactive are those of the source. Rule as the data show it: active = GI50 up to about 1.1 µM and inactive = higher.

The examples below pair each entry with its known result.
>  <molecule>
Cc1ccc(NC(=O)C23CC4CC(CC(C4)C2)C3)c(C(=O)NNC(=O)c2ccc(Cl)cc2)c1

>  <attribute.measured>
GI50

>  <reported.value>
23.3 µM (inactive)

$$$$
>  <molecule>
CCOC(=O)C(O)(NC(=O)NC(O)(C(=O)OCC)C(F)(F)F)C(F)(F)F (centres undefined)

>  <attribute.measured>
GI50

>  <reported.value>
> 100 µM (inactive)

$$$$
>  <molecule>
CC(C)(C)n1c(=O)[nH]c(=O)n1C(C)(C)C

>  <attribute.measured>
GI50

>  <reported.value>
> 100 µM (inactive)

$$$$

Then this molecule:
In one line, give reported GI50 of the entry CSc1ccc2c(c1)C(N1CCN(C)CC1)Cc1ccccc1S2 (centres undefined) .
4.3 µM (inactive)

---

- Tested on: CAKI-1
- experiment.summary: NCI tumour cell line growth inhibition, 48 h
Active and inactive are the calls of the source. Cut-off read from the data, not from the text of the source: active = GI50 up to about 1.1 µM and inactive = higher.
Parameter call: string, one of active, inactive

>  <compound>
CC(Nc1cc(=O)n(C)c(=O)[nH]1)c1ccccc1 (stereo not drawn)

>  <tested.system>
CAKI-1

>  <category>
inactive

$$$$
>  <compound>
O=C1C(Br)=CC2(C=C1Br)CCNC1=C2C(=O)c2ccccc2C1=O

>  <tested.system>
CAKI-1

>  <category>
inactive

$$$$
>  <compound>
N=C(N)NS(=O)(=O)c1ccc(NC(=O)c2cccc3c(Nc4ccc(S(=O)(=O)N=C(N)N)cc4)c4ccc(Cl)cc4nc23)cc1

>  <tested.system>
CAKI-1

>  <category>
inactive

$$$$

Test call, this compound: `COc1cccc(/N=N/C(=NNC(=O)c2ccc(C)cc2)c2ccc(N(C)C)cc2)c1`
inactive

Test call, this compound: `CN(C)CCCN1N=Nc2cccc3cccc1c23`
inactive

Test call, this compound: CCOC(=O)CC1(N)CC2c3ccccc3OC(=O)C2C(=O)N1 (stereo not drawn)
inactive

Test call, this compound: `C/C(=N\NC(=S)N1CCCCCC1)c1nccnc1C`
active

Test call, this compound: `CCN(CC)CCOCCOCC1(c2ccc(Cl)c(Cl)c2)CCCCC1`
inactive

Test call, this compound: O=C1c2cc(Cl)ccc2-n2cnnc2C2CSCN12 (stereo not drawn)
inactive

Test call, this compound: `O=P1(O)c2ccccc2CSCc2ccccc21`
inactive

Test call, this compound: COc1ccccc1/C=C/C1=NN(c2cccc(S(=O)(=O)O)c2)C2(C1)C(Cl)C(=O)N2c1nc2ccccc2s1 (stereo not drawn)
inactive

Test call, this compound: CC(=O)N1c2cc(/N=N/N(C)C)ccc2NC(=O)CC1C (stereo not drawn)
inactive

Test call, this compound: `CNC(=O)N(CCC#N)CCN(C(=O)N(C)C)c1ccccc1`
inactive

Test call, this compound: `O=C(N/N=C\C=C\c1ccc([N+](=O)[O-])o1)C(=O)N/N=C\C=C\c1ccc([N+](=O)[O-])o1`
inactive

Test call, this compound: `Cc1cc(Br)ccc1NC1=CC(=O)C(=O)c2ccccc21`
inactive

Test call, this compound: `CCCCC[C@@H]1OC(=O)[C@@]2(CC3c4ccccc4C2c2ccccc23)[C@H]1C(=O)OC`
inactive

Test call, this compound: `CCOC(=O)C(=O)Nc1c(F)cc(F)cc1Br`
inactive

Test call, this compound: `O=c1/c(=C/c2ccc3c(c2)OCO3)sc2nnc(Cc3ccccc3)n12`
inactive

Test call, this compound: NCCSCC(N)C(=O)O (stereo not drawn)
inactive

Test call, this compound: `COc1ccc(/N=C2\C(=N/c3ccc(OC)cc3)N(c3ccccc3[N+](=O)[O-])C(=S)N2c2ccc(OC)cc2)cc1`
inactive
